tested on: L6; assay: Cytotoxicity against rat L6 cells after 72 hrs by Alamar Blue assay; format: cell-based; conditions: L6, 72 h
# maps each entry to its IC50

{"columns": ["smiles", "IC50"],
 "data": [
  ["CO/N=C(\\N)c1ccc(-c2cccc(-c3ccc(/C(N)=N\\OC)cn3)c2)nc1.Cl", "> 150 µM"],
  ["CC1(C)CN=C(c2ccc(-c3cc(-c4ccc(C5=NCC(C)(C)CN5)cc4)cc([N+](=O)[O-])c3)cc2)NC1", "> 150 µM"],
  ["Cl.Cl.N/C(=N/O)c1ccc(-c2cccc(-c3ccc(/C(N)=N\\O)cc3)c2)cc1", "> 150 µM"]
]}
